target: Estrogen receptor (Homo sapiens) (UniProt P03372); test: Agonist activity at ERalpha in human MCF7 cells assessed as increase in PR expression at 20 uM incubated for 2 hrs measured after 14 hrs by qPCR analysis relative to E2; assay type: functional, cell-based
Active and inactive are the calls of the source. No cut-off for these calls is given here.
Value Type: Activity

Check out these entries, answers already filled in.
[[record]]
compound = "CN(C)CCOc1ccc(-c2ccc(OCC(=O)O)c(C(C)(C)C)c2)cc1C(C)(C)C"
value_type = "Activity"
experimental_result = "> 20%"

[[record]]
compound = "CN(C)CCOc1ccc(-c2ccc(OCC(=O)O)c(Cc3ccccc3)c2)cc1Cc1ccccc1"
value_type = "Activity"
experimental_result = "inactive"

[[record]]
compound = "CN(C)CCOc1ccc(-c2ccc(OCC(=O)O)cc2)cc1"
value_type = "Activity"
experimental_result = "> 20%"

[[record]]
compound = "CCC(C)c1cc(-c2ccc(OCC(=O)O)c(C(C)CC)c2)ccc1OCCN(C)C (stereo not given)"
value_type = "Activity"
experimental_result = "inactive"


We now examine a further compound.
Entry CC(C)c1cc(-c2ccc(OCC(=O)O)c(C(C)C)c2)ccc1OCCN(C)C , Estrogen receptor (Homo sapiens) (UniProt P03372) data, Activity value: inactive

###

Target: Estrogen receptor (Homo sapiens)
Sequence (whole entry): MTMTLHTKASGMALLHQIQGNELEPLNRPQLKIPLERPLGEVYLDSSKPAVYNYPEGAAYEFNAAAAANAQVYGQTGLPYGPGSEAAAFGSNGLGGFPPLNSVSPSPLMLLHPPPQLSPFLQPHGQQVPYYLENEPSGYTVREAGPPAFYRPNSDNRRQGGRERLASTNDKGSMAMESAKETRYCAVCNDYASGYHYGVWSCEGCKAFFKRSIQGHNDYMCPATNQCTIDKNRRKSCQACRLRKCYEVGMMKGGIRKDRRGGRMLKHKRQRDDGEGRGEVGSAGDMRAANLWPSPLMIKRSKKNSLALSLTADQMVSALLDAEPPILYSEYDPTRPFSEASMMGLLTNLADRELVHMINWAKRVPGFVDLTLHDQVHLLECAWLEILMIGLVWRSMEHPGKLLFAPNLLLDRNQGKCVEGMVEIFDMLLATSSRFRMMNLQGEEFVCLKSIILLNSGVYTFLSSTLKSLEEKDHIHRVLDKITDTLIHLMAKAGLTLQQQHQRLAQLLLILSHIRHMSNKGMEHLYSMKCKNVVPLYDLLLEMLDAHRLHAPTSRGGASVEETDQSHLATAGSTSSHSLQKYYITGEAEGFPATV
Assay: Antagonist activity at ERalpha in human MCF7 cells assessed as reduction in E2-induced PS2 expression at 20 uM incubated for 2 hrs prior to E2-induction measured after 14 hrs by qPCR analysis
Assay type: functional, cell-based
The source made the active and inactive calls. The rule behind the calls is not given here.
Value Type: Activity

[[record]]
molecule = "CC(C)c1cc(-c2ccc(OCC(=O)O)c(C(C)C)c2)ccc1OCCN(C)C"
experimental_result = "inactive"

[[record]]
molecule = "CN(C)CCOc1ccc(-c2ccc(OCC(=O)O)cc2)cc1"
experimental_result = "inactive"

[[record]]
molecule = "CN(C)CCOc1ccc(-c2ccc(OCC(=O)O)c(Cc3ccccc3)c2)cc1Cc1ccccc1"
experimental_result = "inactive"

[[record]]
molecule = "CCC(C)c1cc(-c2ccc(OCC(=O)O)c(C(C)CC)c2)ccc1OCCN(C)C (centres undefined)"
experimental_result = "> 20%"


###

biological target: Estrogen receptor (Homo sapiens) (UniProt P03372); assay: Agonist activity at ERalpha co-activator binding domain expressed in human HepG2 cells assessed as […] LXXLL2 binding measured as […] activity at <20 uM; format: cell-based
Activity overview

[[record]]
compound = "CCOC(=O)COc1ccc(-c2ccc(OCCN(C)C)c(C(C)CC)c2)cc1C(C)CC (centres undefined)"
value_type = "Activity"
experimental_result = "> 50%"


Reported Activity for CCOC(=O)COc1ccc(-c2ccc(O)c(C(C)(C)C)c2)cc1C(C)(C)C was > 50%

Reported Activity for CCOC(=O)COc1ccc(-c2ccc(O)cc2)cc1 was > 50%

Reported Activity for CCOC(=O)COc1ccc(-c2ccc(OCCN(C)C)cc2)cc1 was > 50%

###

molecular target: Estrogen receptor (Homo sapiens) (UniProt P03372); test: Binding affinity to ERalpha co-activator binding domain by TR-FRET assay
The source made the active and inactive calls. The calls are words filed in the database; no cut-off is given here.
Value Type: Activity

Check out these entries, answers already filled in.
[[record]]
molecule = "CN(C)CCOc1ccc(-c2ccc(OCC(=O)O)c(C(C)(C)C)c2)cc1C(C)(C)C"
experimental_result = "Active"

[[record]]
molecule = "CN(C)CCOc1ccc(-c2ccc(OCC(=O)O)cc2)cc1"
experimental_result = "Active"

[[record]]
molecule = "CCC(C)c1cc(-c2ccc(OCC(=O)O)c(C(C)CC)c2)ccc1OCCN(C)C (stereo not given)"
experimental_result = "Active"

[[record]]
molecule = "CN(C)CCOc1ccc(-c2ccc(OCC(=O)O)c(Cc3ccccc3)c2)cc1Cc1ccccc1"
experimental_result = "Active"


We now examine a further molecule.
Entry CC(C)c1cc(-c2ccc(OCC(=O)O)c(C(C)C)c2)ccc1OCCN(C)C , Estrogen receptor (Homo sapiens) (UniProt P03372) data, Activity value: Active

###

Target: Estrogen receptor (Homo sapiens) (UniProt P03372)
Sequence (whole entry): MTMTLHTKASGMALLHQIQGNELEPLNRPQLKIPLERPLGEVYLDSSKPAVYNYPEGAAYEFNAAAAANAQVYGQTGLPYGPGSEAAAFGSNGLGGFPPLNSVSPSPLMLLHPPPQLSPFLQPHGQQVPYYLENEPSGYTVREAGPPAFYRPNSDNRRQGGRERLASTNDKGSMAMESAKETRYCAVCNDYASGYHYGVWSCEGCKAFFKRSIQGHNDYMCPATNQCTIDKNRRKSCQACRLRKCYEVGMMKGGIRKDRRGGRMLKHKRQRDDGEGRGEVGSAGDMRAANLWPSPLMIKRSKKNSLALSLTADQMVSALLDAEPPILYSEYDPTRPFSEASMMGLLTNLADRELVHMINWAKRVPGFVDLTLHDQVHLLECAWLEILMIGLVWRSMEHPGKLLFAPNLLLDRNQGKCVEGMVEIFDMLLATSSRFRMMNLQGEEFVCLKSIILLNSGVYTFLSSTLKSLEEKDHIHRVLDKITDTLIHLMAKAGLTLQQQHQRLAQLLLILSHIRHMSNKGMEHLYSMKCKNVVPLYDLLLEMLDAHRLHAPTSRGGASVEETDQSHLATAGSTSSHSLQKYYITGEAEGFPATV
Assay: Agonist activity at ERalpha in human MCF7 cells assessed as increase in SDF1 expression at 20 uM incubated for 2 hrs measured after 14 hrs by qPCR analysis relative to E2
Type: functional, cell-based
Calls of active or inactive are those of the source. No cut-off for these calls is given here.
Value Type: Activity

[[record]]
compound = "CN(C)CCOc1ccc(-c2ccc(OCC(=O)O)cc2)cc1"
system = "Estrogen receptor (Homo sapiens) (UniProt P03372)"
experimental_result = "> 20%"

[[record]]
compound = "CC(C)c1cc(-c2ccc(OCC(=O)O)c(C(C)C)c2)ccc1OCCN(C)C"
system = "Estrogen receptor (Homo sapiens) (UniProt P03372)"
experimental_result = "inactive"

[[record]]
compound = "CN(C)CCOc1ccc(-c2ccc(OCC(=O)O)c(Cc3ccccc3)c2)cc1Cc1ccccc1"
system = "Estrogen receptor (Homo sapiens) (UniProt P03372)"
experimental_result = "inactive"

[[record]]
compound = "CN(C)CCOc1ccc(-c2ccc(OCC(=O)O)c(C(C)(C)C)c2)cc1C(C)(C)C"
system = "Estrogen receptor (Homo sapiens) (UniProt P03372)"
experimental_result = "> 20%"


Reported Activity for CCC(C)c1cc(-c2ccc(OCC(=O)O)c(C(C)CC)c2)ccc1OCCN(C)C (stereo not given) was inactive

Cited source: ChEMBL document CHEMBL2163266
